Values compiled from ChEMBL document CHEMBL1144761.

Tested on: Streptomyces
Assay: Antibacterial activity against Streptomyces 85E assessed as clear zone at 10 ug/disk after 30 hrs by hyphae formation inhibition assay
Type: functional
Settings: read-out: IZ
measure: zone of inhibition at 10 µg/disc (mm)

{"chemical_structure": "Oc1c(Br)cc(Br)c(Br)c1Oc1ccc(Br)cc1Br", "measure": "zone of inhibition at 10 µg/disc", "measure_unit": "mm", "reported_result": 12}
{"chemical_structure": "Oc1c(Br)ccc(Br)c1Oc1ccc(Br)cc1Br", "measure": "zone of inhibition at 10 µg/disc", "measure_unit": "mm", "reported_result": 13}
{"chemical_structure": "Oc1c(Br)c(Br)c(Br)c(Br)c1Oc1ccc(Br)cc1Br", "measure": "zone of inhibition at 10 µg/disc", "measure_unit": "mm", "reported_result": 13}
{"chemical_structure": "Oc1c(Br)c(Br)cc(Br)c1Oc1ccccc1Br", "measure": "zone of inhibition at 10 µg/disc", "measure_unit": "mm", "reported_result": 18}
{"chemical_structure": "Oc1cc(Br)cc(Br)c1Oc1ccc(Br)cc1Br", "measure": "zone of inhibition at 10 µg/disc", "measure_unit": "mm", "reported_result": 17}
